From: patent US20250090699A1

Target: human FAP (Homo sapiens, UniProt Q12884)
Sequence (Q12884 26-760): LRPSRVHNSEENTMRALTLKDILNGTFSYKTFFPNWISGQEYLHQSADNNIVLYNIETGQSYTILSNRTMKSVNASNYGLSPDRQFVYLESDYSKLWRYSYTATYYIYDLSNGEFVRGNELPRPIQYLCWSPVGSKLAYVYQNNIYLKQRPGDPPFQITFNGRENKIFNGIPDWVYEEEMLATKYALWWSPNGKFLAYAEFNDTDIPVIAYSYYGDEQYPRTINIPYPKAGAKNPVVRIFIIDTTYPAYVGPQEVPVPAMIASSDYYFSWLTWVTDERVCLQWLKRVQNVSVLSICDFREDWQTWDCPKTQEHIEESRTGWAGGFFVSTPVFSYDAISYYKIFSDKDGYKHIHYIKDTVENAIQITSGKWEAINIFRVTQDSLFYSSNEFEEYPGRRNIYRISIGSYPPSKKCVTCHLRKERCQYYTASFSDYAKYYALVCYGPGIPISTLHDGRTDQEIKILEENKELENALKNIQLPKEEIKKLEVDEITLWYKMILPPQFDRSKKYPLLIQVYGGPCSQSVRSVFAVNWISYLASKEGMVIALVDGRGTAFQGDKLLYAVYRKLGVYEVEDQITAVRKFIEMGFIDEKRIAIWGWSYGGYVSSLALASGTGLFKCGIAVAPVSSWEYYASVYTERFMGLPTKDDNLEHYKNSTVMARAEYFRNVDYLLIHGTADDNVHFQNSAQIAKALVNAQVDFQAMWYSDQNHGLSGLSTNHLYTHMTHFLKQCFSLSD
Where a name gives a salt, the structure may show the parent alone. Starred links: 1 amine or outer side, 2 acyl side, 3 side chain; linkers in the order of their positions; H or OH if unused. Non-standard residues stand in square brackets, D forms with d. Residues, ends and D or L forms follow the SMILES beside them. Groups on a side chain read outwards from the residue. *: point of attachment. DOTA = O=C(O)CN1CCN(CC(=O)O)CCN(CC(=O)*)CCN(CC(=O)O)CC1; Trp(7-F) = N[C@@H](Cc1c[nH]c2c(F)cccc12)C(=O)O; Piperazinyl(4-CH2COOH) = O=C(O)CN1CCN(*)CC1; X7 = CCCCC[C@@H](O)[C@H](N[*:1])C(=O)[*:2]; AEF = NCCOc1ccc(C[C@H](N)C(=O)O)cc1; NMeF = CN[C@@H](Cc1ccccc1)C(=O)O; Ahp(2) = CCCCC[C@H](N)C(=O)O; CO = O=C([*:1])[*:2]; X3 = FC1(F)CCN(*)C1
IC50 overview
READOUT_LABEL: IC50 (pM)

INSERT INTO measurements (molecule, recorded_value) VALUES
  ('CCCCC[C@@H]1NC(=O)[C@H](Cc2ccc(OCCNC(=O)CN3CCN(CC(=O)O)CCN(CC(=O)O)CCN(CC(=O)O)CC3)cc2)NC(=O)[C@H](Cc2ccccc2)N(C)C(=O)CNC(=O)[C@H](CCCCNC(=O)N2CCN(CC(=O)O)CC2)NC(=O)[C@H]2CCCN2C(=O)[C@H](CC(=O)O)NC(=O)[C@H](Cc2ccc(O)cc2)NC(=O)CNC(=O)[C@H](Cc2c[nH]c3ccccc23)NC1=O [Example B25] (cyclo([AEF](DOTA)[Ahp(2)]WGYD[dP]K([CO-Piperazinyl(4-CH2COOH)])G[NMeF]))', 100),
  ('CN1C(=O)CNC(=O)[C@H](CCCCN)NC(=O)[C@H]2CCCN2C(=O)[C@H](CC(=O)O)NC(=O)[C@H](Cc2ccc(O)cc2)NC(=O)CNC(=O)[C@H](Cc2c[nH]c3ccccc23)NC(=O)[C@H](CCC(=O)N2CCC(F)(F)C2)NC(=O)[C@H](Cc2ccc(O)cc2)NC(=O)[C@@H]1Cc1ccccc1 [Example A30, TFA salt] (cyclo(D[dP]KG[NMeF]YE(X3)WGY))', 790),
  ('CCCCC[C@@H]1NC(=O)[C@H](Cc2ccc(OCCNC(=O)CN3CCN(CC(=O)O)CCN(CC(=O)O)CCN(CC(=O)O)CC3)cc2)NC(=O)[C@H](Cc2ccccc2)N(C)C(=O)CNC(=O)CNC(=O)[C@H]2CCCN2C(=O)[C@H](CC(=O)O)NC(=O)[C@H](CCCCNC(=O)N2CCN(CC(=O)O)CC2)NC(=O)CNC(=O)[C@H](Cc2c[nH]c3ccccc23)NC1=O [Example B3] (cyclo([AEF](DOTA)[Ahp(2)]WGK([CO-Piperazinyl(4-CH2COOH)])D[dP]GG[NMeF]))', 25),
  ('CCCCC[C@@H](O)[C@@H]1NC(=O)[C@H](Cc2ccc(O)cc2)NC(=O)[C@H](Cc2ccccc2)N(C)C(=O)CNC(=O)CNC(=O)[C@H]2CCCN2C(=O)[C@H](CC(=O)O)NC(=O)[C@H](Cc2ccc(O)cc2)NC(=O)CNC(=O)[C@H](Cc2c[nH]c3ccccc23)NC1=O [Example A34] (cyclo(D[dP]GG[NMeF]Y[X7]WGY))', 55),
  ('CCCCC[C@@H]1NC(=O)[C@H](Cc2ccc(O)cc2)NC(=O)[C@H](Cc2ccccc2)N(C)C(=O)CNC(=O)[C@H](CCCCN)NC(=O)[C@H]2CCCN2C(=O)[C@H](CC(=O)O)NC(=O)[C@H](Cc2ccc(O)cc2)NC(=O)CNC(=O)[C@H](Cc2c[nH]c3c(F)cccc23)NC1=O [Example A23, TFA salt] (cyclo([Ahp(2)][Trp(7-F)]GYD[dP]KG[NMeF]Y))', 111);
